# TARGET_UNDER_TEST: T1, human CD137-Fc (human, biotin-labeled)
# T1 construct: if 90 already holds the Fc, drop the second piece; also called biotin-labeled human CD137 fused to human IgG1 Fc fragment; biotin-human CD137-Fc; not shown: human IgG1 Fc fragment
# TEST_DESCRIPTION: bead ELISA on biotin-human CD137-Fc with 125 pmol/well free CD3e peptide as competitor;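 also: Streptavidin-coated magnetic beads in blocking buffer as the capture surface, well signal read as fluorescence 2 min after adding APS-5 substrate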
VALUE_TYPE: ELISA signal
Format: numeric value only, no unit, no commentary.

Incoming: Tell me its ELISA signal given DADU01_3#018 (antibody, V domains shown, Human IgG1; light chain GLS3000 (kappa); also called dBBDu123) VH: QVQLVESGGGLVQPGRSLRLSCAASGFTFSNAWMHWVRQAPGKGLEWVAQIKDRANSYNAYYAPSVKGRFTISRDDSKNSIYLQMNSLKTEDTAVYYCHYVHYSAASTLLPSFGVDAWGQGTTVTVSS VL: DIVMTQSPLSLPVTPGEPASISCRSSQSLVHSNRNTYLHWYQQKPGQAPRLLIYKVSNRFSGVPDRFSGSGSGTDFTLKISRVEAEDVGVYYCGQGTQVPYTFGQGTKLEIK as the entry.
Outgoing: 1840

Incoming: // fetch ELISA signal given entry DXDU01_3#051 (antibody, V domains shown, Human IgG1; light chain GLS3000 (kappa); also called dBBDu127) VH: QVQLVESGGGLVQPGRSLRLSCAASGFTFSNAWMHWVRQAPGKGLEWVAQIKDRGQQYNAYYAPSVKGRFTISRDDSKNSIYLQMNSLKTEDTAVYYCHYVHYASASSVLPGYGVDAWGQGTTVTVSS VL: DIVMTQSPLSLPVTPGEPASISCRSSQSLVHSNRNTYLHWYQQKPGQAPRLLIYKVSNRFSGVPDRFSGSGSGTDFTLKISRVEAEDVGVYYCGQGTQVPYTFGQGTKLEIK
Outgoing: 2200

Next:
Incoming: Quick one: give measured ELISA signal for dBBDu196 (antibody, V domains shown, Human IgG1; light chain GLS3000 (kappa)) VH: QVQLVESGGGLVQPGRSLRLSCAASGFTFSNAWMHWVRQAPGKGLEWVAQIKDRGNAYNAYYAESVKGRFTISRDDSKNSIYLQMNSLKTEDTAVYYCHYVHYASASTVLPAFGVDAWGQGTTVTVSS VL: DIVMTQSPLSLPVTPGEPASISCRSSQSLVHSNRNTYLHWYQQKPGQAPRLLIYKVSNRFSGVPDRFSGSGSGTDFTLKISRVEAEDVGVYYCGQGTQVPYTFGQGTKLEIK
Outgoing: 2220
